- experimentalTarget: Dynamin-2 (Rattus norvegicus, UniProt P39052)
- Sequence (P39052 whole entry): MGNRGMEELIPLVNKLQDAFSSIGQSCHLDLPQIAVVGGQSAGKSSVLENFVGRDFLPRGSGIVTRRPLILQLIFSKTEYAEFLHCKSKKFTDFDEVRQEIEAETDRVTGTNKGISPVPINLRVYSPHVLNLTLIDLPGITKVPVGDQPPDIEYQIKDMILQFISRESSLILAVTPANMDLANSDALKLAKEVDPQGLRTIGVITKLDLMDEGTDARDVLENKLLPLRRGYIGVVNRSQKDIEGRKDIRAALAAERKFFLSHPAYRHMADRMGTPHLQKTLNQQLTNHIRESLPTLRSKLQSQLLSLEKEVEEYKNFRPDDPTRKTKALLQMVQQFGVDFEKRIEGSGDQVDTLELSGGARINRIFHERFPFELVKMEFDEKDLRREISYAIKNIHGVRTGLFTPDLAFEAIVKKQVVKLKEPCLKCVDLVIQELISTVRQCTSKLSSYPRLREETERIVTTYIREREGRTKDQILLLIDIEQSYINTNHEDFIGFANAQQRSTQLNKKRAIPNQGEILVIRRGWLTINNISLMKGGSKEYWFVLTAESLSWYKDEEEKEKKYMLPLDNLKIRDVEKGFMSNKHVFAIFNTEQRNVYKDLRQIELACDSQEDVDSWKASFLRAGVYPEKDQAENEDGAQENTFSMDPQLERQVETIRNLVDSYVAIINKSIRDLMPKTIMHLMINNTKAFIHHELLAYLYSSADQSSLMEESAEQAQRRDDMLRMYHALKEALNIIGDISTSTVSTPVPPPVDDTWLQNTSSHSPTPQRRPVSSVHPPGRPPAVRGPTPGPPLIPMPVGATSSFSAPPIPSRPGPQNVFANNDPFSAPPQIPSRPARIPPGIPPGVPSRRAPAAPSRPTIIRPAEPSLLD
- procedureSummary: Inhibition of phosphatidylserine-stimulated GTPase activity of recombinant rat Dynamin 2 expressed in Sf21 cells assessed as inhibition of orthophosphate release from GTP by malachite green method
Hi there, I'd appreciate the recorded IC50 for every entry that follows.
# number only, unit µM dropped from output

Notebook: pull reported IC50 for Dynamin-2 (Rattus norvegicus, UniProt P39052), entry O=C1C=C(Nc2ccc(C(=O)O)cc2)C(=O)C=C1Nc1ccc(C(=O)O)cc1
9.1

O=C1C=C(Nc2cccc(O)c2)C(=O)C=C1Nc1cccc(O)c1 , same question.
43.7

O=C1C=C(Nc2cccc(C(=O)O)c2)C(=O)C=C1Nc1cccc(C(=O)O)c1 , same question.
14.7

O=C1C=C(Nc2ccc(O)cc2)C(=O)C=C1Nc1ccc(O)cc1 , same question.
23.6
